Counter-ions that a name gives are not always drawn.
Entries with reported IC50 on serotonin 1A (5-HT1A) receptor (Rattus norvegicus)
Sequence (P19327 whole entry): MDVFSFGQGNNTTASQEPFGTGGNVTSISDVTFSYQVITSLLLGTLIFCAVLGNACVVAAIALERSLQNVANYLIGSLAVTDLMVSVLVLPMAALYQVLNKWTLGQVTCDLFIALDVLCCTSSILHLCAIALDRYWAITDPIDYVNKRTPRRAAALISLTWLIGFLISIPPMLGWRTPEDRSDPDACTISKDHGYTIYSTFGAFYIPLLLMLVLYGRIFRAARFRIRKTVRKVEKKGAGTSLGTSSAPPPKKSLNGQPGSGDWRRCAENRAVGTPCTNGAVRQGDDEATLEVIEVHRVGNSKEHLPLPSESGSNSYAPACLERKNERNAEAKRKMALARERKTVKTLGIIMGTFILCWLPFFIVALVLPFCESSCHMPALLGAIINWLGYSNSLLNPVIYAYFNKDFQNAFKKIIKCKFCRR
OBSERVED_PROPERTY: IC50 (nM)

{"MOLECULE": "CCN1CCCC1CNC(=O)c1cc(Cl)cc2c1OCCN2C (stereo not shown) [Example 13, hydrochloride]", "TEST_SYSTEM": "serotonin 1A (5-HT1A) receptor (Rattus norvegicus)", "MEASUREMENT_UNITS": "nM", "OBSERVED_MEASUREMENT": 750}
{"MOLECULE": "CCCCCCCCCN1CCC[C@@H]1CNC(=O)c1cc(Cl)cc2c1OCCN2C", "TEST_SYSTEM": "serotonin 1A (5-HT1A) receptor (Rattus norvegicus)", "MEASUREMENT_UNITS": "nM", "OBSERVED_MEASUREMENT": 24}

1. CCCCN1CCCC1CNC(=O)c1cc(Cl)cc2c1OCCN2C (stereo not shown) [Example 14, hydrochloride]
2. CCCCN1CCC[C@@H]1CNC(=O)c1cc(Cl)cc2c1OCCN2C
1 or 2 : whose IC50 is greater? Refer to your chosen entry by its label in the reply.
2
(2: 420 nM, 1: 62 nM)
